Reference source: the NIST ThermoML archive (doi:10.1016/j.jct.2011.11.025)

Test: activity coefficient (dimensionless); of the first substance listed, at infinite dilution; xn = mol fraction of the nth substance listed
Settings: 318.15 K; Liquid; Chromatography; x1 = 0

>  <compound>
CCCCCCCCC [nonane] + CCCCCCn1cc[n+](C)c1.N#C[B-](C#N)(C#N)C#N

>  <activity coefficient>
31.4

$$$$
>  <compound>
C1COCCO1 [1,4-dioxane] + CCCCCCn1cc[n+](C)c1.N#C[B-](C#N)(C#N)C#N

>  <activity coefficient>
0.362

$$$$
>  <compound>
CC1CCCCC1 [methylcyclohexane] + CCCCCCn1cc[n+](C)c1.N#C[B-](C#N)(C#N)C#N

>  <activity coefficient>
8.87

$$$$
>  <compound>
C=CCCCC [hex-1-ene] + CCCCCCn1cc[n+](C)c1.N#C[B-](C#N)(C#N)C#N

>  <activity coefficient>
6.13

$$$$
>  <compound>
Cc1ccccc1C [1,2-dimethylbenzene] + CCCCCCn1cc[n+](C)c1.N#C[B-](C#N)(C#N)C#N

>  <activity coefficient>
1.19

$$$$
>  <compound>
CCC(=O)CC [pentan-3-one] + CCCCCCn1cc[n+](C)c1.N#C[B-](C#N)(C#N)C#N

>  <activity coefficient>
0.478

$$$$
>  <compound>
C#CCCCC [1-hexyne] + CCCCCCn1cc[n+](C)c1.N#C[B-](C#N)(C#N)C#N

>  <activity coefficient>
2.17

$$$$
>  <compound>
CCCCCCCC [octane] + CCCCCCn1cc[n+](C)c1.N#C[B-](C#N)(C#N)C#N

>  <activity coefficient>
22.8

$$$$
>  <compound>
CCOC(C)=O [ethyl acetate] + CCCCCCn1cc[n+](C)c1.N#C[B-](C#N)(C#N)C#N

>  <activity coefficient>
0.664

$$$$
>  <compound>
CCCC=O [butanal] + CCCCCCn1cc[n+](C)c1.N#C[B-](C#N)(C#N)C#N

>  <activity coefficient>
0.512

$$$$
>  <compound>
CCC(C)(C)C [2,2-dimethylbutane] + CCCCCCn1cc[n+](C)c1.N#C[B-](C#N)(C#N)C#N

>  <activity coefficient>
10.5

$$$$
>  <compound>
CC(C)(C)O [2-methylpropan-2-ol] + CCCCCCn1cc[n+](C)c1.N#C[B-](C#N)(C#N)C#N

>  <activity coefficient>
1.2

$$$$
>  <compound>
c1ccsc1 [thiophene] + CCCCCCn1cc[n+](C)c1.N#C[B-](C#N)(C#N)C#N

>  <activity coefficient>
0.636

$$$$
>  <compound>
CCCC(C)=O [pentan-2-one] + CCCCCCn1cc[n+](C)c1.N#C[B-](C#N)(C#N)C#N

>  <activity coefficient>
0.497

$$$$
>  <compound>
C1CCCCC1 [cyclohexane] + CCCCCCn1cc[n+](C)c1.N#C[B-](C#N)(C#N)C#N

>  <activity coefficient>
6.52

$$$$
>  <compound>
CC(C)OC(C)C [diisopropyl ether] + CCCCCCn1cc[n+](C)c1.N#C[B-](C#N)(C#N)C#N

>  <activity coefficient>
3.68

$$$$
>  <compound>
C1=CCCCC1 [cyclohexene] + CCCCCCn1cc[n+](C)c1.N#C[B-](C#N)(C#N)C#N

>  <activity coefficient>
3.48

$$$$
>  <compound>
CCOC(C)(C)C [2-ethoxy-2-methylpropane] + CCCCCCn1cc[n+](C)c1.N#C[B-](C#N)(C#N)C#N

>  <activity coefficient>
3.51

$$$$
>  <compound>
CC(C)CC(C)(C)C [2,2,4-trimethylpentane] + CCCCCCn1cc[n+](C)c1.N#C[B-](C#N)(C#N)C#N

>  <activity coefficient>
18.8

$$$$
>  <compound>
C#CCCCCC [1-heptyne] + CCCCCCn1cc[n+](C)c1.N#C[B-](C#N)(C#N)C#N

>  <activity coefficient>
2.92

$$$$
>  <compound>
CCC(C)CC [3-methylpentane] + CCCCCCn1cc[n+](C)c1.N#C[B-](C#N)(C#N)C#N

>  <activity coefficient>
10.5

$$$$
>  <compound>
C#CCCCCCC [1-octyne] + CCCCCCn1cc[n+](C)c1.N#C[B-](C#N)(C#N)C#N

>  <activity coefficient>
3.99

$$$$
>  <compound>
Cc1cccc(C)c1 [1,3-dimethylbenzene] + CCCCCCn1cc[n+](C)c1.N#C[B-](C#N)(C#N)C#N

>  <activity coefficient>
1.36

$$$$
>  <compound>
CC(C)=O [acetone] + CCCCCCn1cc[n+](C)c1.N#C[B-](C#N)(C#N)C#N

>  <activity coefficient>
0.335

$$$$
>  <compound>
COC(C)(C)C [2-methoxy-2-methylpropane] + CCCCCCn1cc[n+](C)c1.N#C[B-](C#N)(C#N)C#N

>  <activity coefficient>
1.62

$$$$
>  <compound>
CCCCCCC [heptane] + CCCCCCn1cc[n+](C)c1.N#C[B-](C#N)(C#N)C#N

>  <activity coefficient>
16.5

$$$$
>  <compound>
CCC(C)O (stereo unspecified) [butan-2-ol] + CCCCCCn1cc[n+](C)c1.N#C[B-](C#N)(C#N)C#N

>  <activity coefficient>
1.27

$$$$
>  <compound>
COC(C)=O [methyl ethanoate] + CCCCCCn1cc[n+](C)c1.N#C[B-](C#N)(C#N)C#N

>  <activity coefficient>
0.508

$$$$
>  <compound>
CCCC(=O)OC [methyl butanoate] + CCCCCCn1cc[n+](C)c1.N#C[B-](C#N)(C#N)C#N

>  <activity coefficient>
0.664

$$$$
>  <compound>
CCCOCCC [dipropyl ether] + CCCCCCn1cc[n+](C)c1.N#C[B-](C#N)(C#N)C#N

>  <activity coefficient>
3.82

$$$$
>  <compound>
CCOCC [diethyl ether] + CCCCCCn1cc[n+](C)c1.N#C[B-](C#N)(C#N)C#N

>  <activity coefficient>
1.59

$$$$
